Data provenance: ChEMBL document CHEMBL4382231

# Test system: Candida albicans
# assay.summary: Antifungal activity against Candida albicans SC5314 cultured in YNB media after 72 hrs by broth microdilution method
# Assay type: functional
# condition.set: SC5314, 72 h
Listed below: MIC values for each entry.
measured.parameter: MIC (mg/L)

# mol, measured.parameter, reported.result
rows = [
    ("CCOC(=O)c1ccccc1OS(=O)(=O)NC(=O)Nc1nc(OC)cc(OC)n1", "MIC", 2.5),
    ("CCOC(=O)c1ccccc1OS(=O)(=O)[N-]C(=O)Nc1nc(OC)cc(OC)n1.[Na+]", "MIC", 2.5),
    ("CCOc1ccccc1OS(=O)(=O)[N-]C(=O)Nc1nc(OC)cc(OC)n1.[Na+]", "MIC", 1.25),
    ("COc1cc(OC)nc(NC(=O)[N-]S(=O)(=O)Oc2ccccc2OCCI)n1.[Na+]", "MIC", 10),
    ("CCOc1ccccc1OS(=O)(=O)NC(=O)Nc1nc(OC)cc(OC)n1", "MIC", 1.25),
]

====

# System: Saccharomyces cerevisiae
# assay.summary: Antifungal activity against Saccharomyces cerevisiae SC XH1549 cultured in YNB media after 24 hrs by broth microdilution method
# Assay type: functional
# condition.set: SC XH1549, 24 h
measured.parameter: MIC (µg/mL)

# mol, target.of.assay, reported.result
measured = [
    ("CCOc1ccccc1OS(=O)(=O)[N-]C(=O)Nc1nc(OC)cc(OC)n1.[Na+]", "Saccharomyces cerevisiae", 5),
    ("C[C@@H]1[C@H](O)[C@@H](C)/C=C/C=C/C=C/C=C/C=C/C=C/C=C/[C@H](O[C@@H]2O[C@H](C)[C@@H](O)[C@H](N)[C@@H]2O)C[C@@H]2O[C@](O)(C[C@@H](O)C[C@@H](O)[C@H](O)CC[C@@H](O)C[C@@H](O)CC(=O)O[C@H]1C)C[C@H](O)[C@H]2C(=O)O", "Saccharomyces cerevisiae", 2.5),
    ("OC(Cn1cncn1)(Cn1cncn1)c1ccc(F)cc1F", "Saccharomyces cerevisiae", 0.25),
    ("CCOC(=O)c1ccccc1OS(=O)(=O)[N-]C(=O)Nc1nc(OC)cc(OC)n1.[Na+]", "Saccharomyces cerevisiae", 2.5),
    ("COc1cc(OC)nc(NC(=O)[N-]S(=O)(=O)Oc2ccccc2OCCI)n1.[Na+]", "Saccharomyces cerevisiae", 80),
    ("CCOC(=O)c1ccccc1OS(=O)(=O)NC(=O)Nc1nc(OC)cc(OC)n1", "Saccharomyces cerevisiae", 2.5),
    ("CCOc1ccccc1OS(=O)(=O)NC(=O)Nc1nc(OC)cc(OC)n1", "Saccharomyces cerevisiae", 5),
]

====

# Test system: Candida albicans
# assay.summary: Antifungal activity against Candida albicans SC5314 cultured in YNB media after 24 hrs by broth microdilution method
# Type: functional
# condition.set: SC5314, 24 h
measured.parameter: MIC (µg/mL)

# mol, sign, reported.result
data = [
    ("Cc1cc(Cl)nc(NC(=O)[N-]S(=O)(=O)Oc2ccccc2C(=O)OCCCl)n1.[Na+]", ">", 100),
    ("COc1cc(C)nc(NC(=O)[N-]S(=O)(=O)Oc2ccccc2OCCCl)n1.[Na+]", "=", 10),
    ("COc1cc(Cl)nc(NC(=O)[N-]S(=O)(=O)Oc2ccccc2C(=O)Oc2ccccc2)n1.[Na+]", ">", 100),
    ("COc1cc(C)nc(NC(=O)[N-]S(=O)(=O)Oc2ccccc2OCCI)n1.[Na+]", "=", 10),
    ("COc1cc(Cl)nc(NC(=O)[N-]S(=O)(=O)Oc2ccccc2C(=O)OC(C)C)n1.[Na+]", ">", 100),
    ("CCOc1ccccc1OS(=O)(=O)[N-]C(=O)Nc1nc(OC)cc(OC)n1.[Na+]", "=", 0.625),
    ("Cc1cc(C)nc(NC(=O)[N-]S(=O)(=O)Oc2ccccc2OCCCl)n1.[Na+]", ">", 100),
    ("COc1cc(I)nc(NC(=O)[N-]S(=O)(=O)Oc2ccccc2[N+](=O)[O-])n1.[Na+]", "=", 40),
    ("COc1cc(Cl)nc(NC(=O)[N-]S(=O)(=O)Oc2ccccc2OCCCl)n1.[Na+]", ">", 100),
]
